biological target: Short transient receptor potential channel 4 (Mus musculus) (UniProt Q9QUQ5); assay: inhibitors of mouse TRPC4 channel, confirmation, cell-based, Fluo4, HEK293 TRPC4beta/mu-opioid (AID 2636); settings: DAMGO, Fluo4 calcium flux, at 10 µM
Sequence (Q9QUQ5 whole entry, looked up): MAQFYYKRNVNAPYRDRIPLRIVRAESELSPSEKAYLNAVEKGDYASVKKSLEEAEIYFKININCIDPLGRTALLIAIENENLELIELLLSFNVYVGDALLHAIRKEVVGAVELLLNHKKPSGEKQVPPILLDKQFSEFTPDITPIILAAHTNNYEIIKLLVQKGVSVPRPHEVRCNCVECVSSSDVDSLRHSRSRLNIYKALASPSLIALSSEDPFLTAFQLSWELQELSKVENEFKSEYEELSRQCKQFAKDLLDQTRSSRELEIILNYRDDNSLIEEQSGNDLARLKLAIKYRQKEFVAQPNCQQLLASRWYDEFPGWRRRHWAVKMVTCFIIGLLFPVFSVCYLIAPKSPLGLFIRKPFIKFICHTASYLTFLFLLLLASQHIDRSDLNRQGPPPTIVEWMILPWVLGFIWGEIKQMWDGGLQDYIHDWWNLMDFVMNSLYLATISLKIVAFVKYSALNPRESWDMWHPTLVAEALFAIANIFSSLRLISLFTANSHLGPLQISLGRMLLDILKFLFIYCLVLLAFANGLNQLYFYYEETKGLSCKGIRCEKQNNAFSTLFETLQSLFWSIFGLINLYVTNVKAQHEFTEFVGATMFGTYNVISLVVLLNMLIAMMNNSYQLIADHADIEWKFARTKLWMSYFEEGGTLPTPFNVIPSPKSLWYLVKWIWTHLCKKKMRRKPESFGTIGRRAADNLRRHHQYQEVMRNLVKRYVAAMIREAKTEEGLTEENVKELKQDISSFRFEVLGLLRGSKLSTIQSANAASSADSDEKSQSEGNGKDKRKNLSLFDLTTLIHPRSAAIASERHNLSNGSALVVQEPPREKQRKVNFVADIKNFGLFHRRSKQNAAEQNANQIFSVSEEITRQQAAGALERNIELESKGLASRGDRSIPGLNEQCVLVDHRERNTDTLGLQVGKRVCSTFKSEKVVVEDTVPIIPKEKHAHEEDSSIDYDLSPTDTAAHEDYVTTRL
Active and inactive are the calls of the source.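 How the source made its calls: active means calcium signal cut by more than 3 SD below the full-agonist control yet still positive, in both repeats and the earlier primary screen; inactive means the rest.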
Select the matching outcome among active, inactive

input: Identify the outcome logged in this assay for the compound shown: COc1ccc(/C=C/CN2CCCC(C(=O)c3ccc(OC)c(F)c3)C2)cc1 (stereo unspecified)
output: inactive

input: Identify the outcome logged in this assay for the compound shown: CC(NCCC1(Cc2ccccc2Cl)CCOC(C)(C)C1)c1cccs1 (stereo unspecified)
output: inactive

input: Identify the outcome logged in this assay for the compound shown: Cc1ccc(C2(O)CN(c3ccccc3)C3=[N+]2CCS3)cc1 (stereo unspecified)
output: active

input: Identify the outcome logged in this assay for the compound shown: "COc1ccc2nc(NS(=O)(=O)c3ccc(NC(C)=O)cc3)sc2c1"
output: active

input: Identify the outcome logged in this assay for the compound shown: CN1C2C=C(N(CCc3c[nH]c4ccccc34)C(=O)c3ccc(Cl)cc3)CC1CC2 (stereo unspecified)
output: inactive

input: Identify the outcome logged in this assay for the compound shown: "CC(=O)N1CCc2cc(Br)cc(S(=O)(=O)NCCCN(C)Cc3ccccc3)c21"
output: inactive

input: Identify the outcome logged in this assay for the compound shown: "COC(=O)[C@@]1(Cc2ccc(F)cc2)[C@H]2c3cc(C(=O)N(C)C)n(CCc4ccccn4)c3C[C@H]2CN1C(=O)c1ccccc1"
output: inactive

input: Identify the outcome logged in this assay for the compound shown: COc1cc(OC)cc(C(=O)N[C@H](C(=O)OCC(=O)NC(C)c2ccccc2)C(C)C)c1 (stereo partly specified)
output: inactive

input: Identify the outcome logged in this assay for the compound shown: "Cc1ccc(-n2cc(CNCCc3ncc(C)[nH]3)c(-c3ccc(F)cc3)n2)cc1"
output: inactive

input: Identify the outcome logged in this assay for the compound shown: CN(C)C(CNC(=O)c1ccc2ccccc2n1)c1ccccc1 (stereo unspecified)
output: inactive

input: Identify the outcome logged in this assay for the compound shown: "O=C(NNC(=S)NC(=O)C12CC3CC(CC(C3)C1)C2)c1ccncc1"
output: inactive

input: Identify the outcome logged in this assay for the compound shown: CN(C)C(CNC(=S)Nc1ccccc1)c1cccnc1 (stereo unspecified)
output: inactive

input: Identify the outcome logged in this assay for the compound shown: "COc1cc(OC)cc(C(=O)NCCCN2CCN(CCCNC(=O)c3cc(OC)cc(OC)c3)CC2)c1"
output: inactive
